test system: MES-induced seizure; test: Maximal Electroshock Seizure (MES) test in rats, oral administration; type: in vivo; settings: 30 mg/kg oral, 4.0 h after administration
Readout Label: Percentage of rats in which the test compound prevented MES-induced seizure
The number alone won't do; follow it with the unit.

Guide cases for Percentage of rats in which the test compound prevented MES-induced seizure, answers given:
Inquiry: Requested read-out: Percentage of rats in which the test compound prevented MES-induced seizure. Entry: Nc1ccc(Oc2ccc(N)cc2)cc1
Reply text: 100%

Inquiry: Fill in the blank: the reported Percentage of rats in which the test compound prevented MES-induced seizure of Nc1ccc(Nc2cccc(N)c2)cc1 is ____.
Reply text: 50%

Inquiry: So what does the record say about Percentage of rats in which the test compound prevented MES-induced seizure for Nc1ccc(Sc2ccc(N)cc2)cc1 ?
Reply text: 100%

Inquiry: Param item = Nc1ccc(C(=O)c2ccc(N)cc2)cc1 ; retrieve measured Percentage of rats in which the test compound prevented MES-induced seizure.
Reply text: 75%

Further cases:
Inquiry: Requested read-out: Percentage of rats in which the test compound prevented MES-induced seizure. Entry: Nc1ccc(Cc2ccc(N)cc2)cc1
Reply text: 50%
